# assay-details: self-splicing fitness, log relative to wild type (ln ratio); higher = more splicing; Tetrahymena group I intron in knt gene, E. coli kanamycin selection, DiMSum; sequences stand for … in CUCUCU…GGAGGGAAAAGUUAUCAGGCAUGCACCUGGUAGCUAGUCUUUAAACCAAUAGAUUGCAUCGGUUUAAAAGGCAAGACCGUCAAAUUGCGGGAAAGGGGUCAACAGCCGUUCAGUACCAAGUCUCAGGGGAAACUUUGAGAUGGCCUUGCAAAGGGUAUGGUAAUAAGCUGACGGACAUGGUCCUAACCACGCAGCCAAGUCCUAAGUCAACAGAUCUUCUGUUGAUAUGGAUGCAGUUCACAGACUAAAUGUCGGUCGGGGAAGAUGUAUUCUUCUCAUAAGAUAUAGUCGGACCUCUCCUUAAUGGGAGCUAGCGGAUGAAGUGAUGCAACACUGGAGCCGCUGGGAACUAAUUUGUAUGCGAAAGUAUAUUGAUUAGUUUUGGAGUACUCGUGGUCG;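 note: selection with 25 µg/mL kanamycin versus none on LB agar overnight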
# experimental-parameters: 37 °C
Rule: self-splicing fitness (ln) under -2 gives rule not met, otherwise rule met.

>>> label_class("UGUGAGCAAUAUUACGGUUA")
"rule met"
>>> label_class("GCGGAGCAAUAUUACGACCU")
"rule met"
>>> label_class("AUCAAGCAAUAUUACGACUG")
"rule met"
>>> label_class("UUGUAGCAAUAUUACGCAAG")
"rule met"
>>> label_class("UGUCAGCAAUAUUACGAUAU")
"rule met"
>>> label_class("GCCAAGCAAUAUUACGGGCG")
"rule met"
>>> label_class("CAAGAGCAAUAUUACGCGUC")
"rule not met"
>>> label_class("AAGCAGCAAUAUUACGGCGA")
"rule met"
>>> label_class("GUAUAGCAAUAUUACGUUUA")
"rule met"
>>> label_class("UGCGAGCAAUAUUACGGAAC")
"rule not met"

Task: Does the sequence `UAGCAGCAAUAUUACGCUAC` have recorded self-splicing fitness (ln) that is -2 or more?
Result: rule not met

Task: Confirm if self-splicing fitness (ln) reported for the sequence `CCUCAGCAAUAUUACGCGCA` is -2 or above.
Result: rule not met

Task: Determine whether this sequence has self-splicing fitness (ln) no lower than -2: `GUCGAGCAAUAUUACGAUGA`
Result: rule met

Task: Exam item: decide whether the reported self-splicing fitness (ln) for `UCGGAGCAAUAUUACGGGUA` is at least -2.
Result: rule met

Task: Is self-splicing fitness (ln) for `CCAUAGCAAUAUUACGGUCG` at or above -2?
Result: rule met

Task: Answer whether self-splicing fitness (ln) of `AAGGAGCAAUAUUACGAGAA` is greater than or equal to -2.
Result: rule not met

Task: API: above_or_equal(metric=self-splicing fitness (ln), cutoff=-2) for item `UGUUAGCAAUAUUACGCGUG`
Result: rule met

* * *

# assay-details: self-splicing fitness, log relative to wild type (ln ratio); higher = more splicing; Tetrahymena group I intron in knt gene, E. coli kanamycin selection, DiMSum; sequences stand for … in CUCUCU…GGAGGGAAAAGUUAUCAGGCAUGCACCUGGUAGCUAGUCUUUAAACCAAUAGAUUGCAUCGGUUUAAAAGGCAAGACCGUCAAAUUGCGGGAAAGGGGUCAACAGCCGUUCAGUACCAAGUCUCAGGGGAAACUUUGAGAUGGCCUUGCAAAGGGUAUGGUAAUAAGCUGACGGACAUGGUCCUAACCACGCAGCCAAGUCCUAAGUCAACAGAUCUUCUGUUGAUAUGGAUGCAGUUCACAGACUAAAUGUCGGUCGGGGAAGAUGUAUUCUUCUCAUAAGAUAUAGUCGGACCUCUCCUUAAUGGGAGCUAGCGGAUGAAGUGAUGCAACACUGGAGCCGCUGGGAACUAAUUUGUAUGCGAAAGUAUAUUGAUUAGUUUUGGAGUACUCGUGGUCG
# experimental-parameters: 30 °C
Could you label it Condition met if measured self-splicing fitness (ln) is -0.6 or higher, and Condition not met otherwise?

>>> label_class("AUGCAGCAAUAUUACGCUGA")
"Condition not met"

Task: State whether the measured self-splicing fitness (ln) reaches -0.6, counting equality as reaching it, for `UAUCAGCAAUAUUACGCGUG`
Result: Condition met

Task: Could you tell me if the measured self-splicing fitness (ln) of `CAGUAGCAAUAUUACGAAUU` reaches -0.6 or more?
Result: Condition not met

Task: Confirm if self-splicing fitness (ln) reported for the sequence `UUGUAGCAAUAUUACGCAAG` is -0.6 or above.
Result: Condition not met

Task: hey, is self-splicing fitness (ln) for this one >= -0.6? `UGGCAGCAAUAUUACGAUGA`
Result: Condition not met

Where do these numbers come from? They come from the supplement of paper PMC7877785.
